Property: glomerular width; scope: individual compounds
System: Danio rerio Tg(wt1b:EGFP) embryo, pronephros
assay: glomerular width (mean of left and right), fold change vs DMSO control; higher = wider glomerulus
experimental conditions: 25 µM; exposure: 24-48 hpf
Where a name gives a salt, the structure may show the parent alone.
# print the numeric value only

// worked examples, glomerular width included
compound	numeric result
CC1CCc2cc(F)cc3c(=O)c(C(=O)O)cn1c23 (configuration not stated) [Flumequine]	1.05
CCCCc1cc2ccccc2c(OCCN(C)C)n1 [Dimethisoquin hydrochloride]	0.942

q: Consider the compound Cc1cc(O)c(C(=O)N[C@@H](C(=O)N[C@@H]2C(=O)N3C(C(=O)O)=C(CSc4nnnn4C)CS[C@H]23)c2ccc(O)cc2)cn1 [Cefpiramide] and give its measured glomerular width.
a: 0.985

q: Moving on to NC(=O)C(c1ccccc1)(c1ccccc1)[C@@H]1CCN(CCc2ccc3c(c2)CCO3)C1 [Darifenacin hydrobromide]
a: 1.09

====

Test system: Danio rerio Tg(wt1b:EGFP) embryo, pronephros
assay: fraction of imaged embryos annotated as normal kidney; higher = less nephrotoxic; extreme values may be limits of the assay
experimental conditions: 25 µM; exposure: 24-48 hpf
Structures can show the parent of a compound that is named as a salt.
quantity kind: fraction of imaged embryos annotated as normal kidney
# print the numeric value only

// worked examples, fraction of imaged embryos annotated as normal kidney included
>>> df
                                   compound  numeric_result
0  CC(C)C[C@H](NC(=O)[C@@H](O)[C@H](N)Cc1ccccc1)C(=O)O           0.833
1                      C[C@@]1(O)CCOC(=O)C1            0.75
2  Cc1cc(C(C)(C)C)cc(C)c1CC1=NCCN1 [Xylometazoline hydrochloride]               1
3  Cc1nc2ccccn2c(=O)c1CCN1CCC(C(=O)c2ccc(F)cc2)CC1               1
4  Cc1cccc(C)c1NC(=O)C1CCCCN1C (stereo not drawn) [Mepivacaine hydrochloride]           0.917
5  Nc1nc(=O)c2nc(CNc3ccc(C(=O)N[C@@H](CCC(=O)O)C(=O)O)cc3)cnc2[nH]1           0.636
6                     CCCCOC(=O)c1ccc(O)cc1             0.5

Then this compound:
q: Consider the compound C[C@]12CC[C@@H]3c4ccc(O)cc4C[C@@H](CCCCCCCCC[S+]([O-])CCCC(F)(F)C(F)(F)F)[C@H]3[C@@H]1CC[C@@H]2O (stereo partly drawn) and give its measured fraction of imaged embryos annotated as normal kidney.
a: 0.833

====

Property: fraction of imaged embryos annotated as normal kidney; scope: individual compounds
Test system: Danio rerio Tg(wt1b:EGFP) embryo, pronephros
assay: fraction of imaged embryos annotated as normal kidney; higher = less nephrotoxic; extreme values may be limits of the assay
experimental conditions: 25 µM; exposure: 24-48 hpf
Where a name gives a salt, the structure may show the parent alone.
# print the numeric value only

>>> print(df.to_string())
                                   compound                          target_or_system  numeric_result
0  O=C1NCC2(CCN(CCc3ccccc3)CC2)O1 [Fenspiride hydrochloride]  Danio rerio Tg(wt1b:EGFP) embryo, pronephros           0.833

q: Consider the compound CC(C(=O)O)c1cccc(Oc2ccccc2)c1 (centres undefined) [Fenoprofen calcium salt dihydrate] and give its measured fraction of imaged embryos annotated as normal kidney.
a: 0

q: Moving on to CN1CCN(CCCN2c3ccccc3Sc3ccc(S(=O)(=O)N(C)C)cc32)CC1 [Thioproperazine dimesylate]
a: 0.917

q: Moving on to Cc1cc(C2CCCCC2)n(O)c(=O)c1
a: 0

====

Tested on: Danio rerio Tg(wt1b:EGFP) embryo, pronephros
assay: pronephric angle neck segment to proximal convoluted tubule (mean of left and right), fold change vs DMSO control; higher = larger pronephric angle
experimental conditions: 25 µM; exposure: 24-48 hpf
Counter-ions that a name gives are not always drawn.
quantity kind: pronephric angle neck segment

>>> print(df.to_string())
                                   molecule                  quantity_kind  result
0  C=CCOc1ccccc1OCC(O)CNC(C)C (configuration not stated) [Oxprenolol hydrochloride]  pronephric angle neck segment    1.01
1  CNc1ncnc2c1ncn2[C@@H]1O[C@H](CO)[C@@H](O)[C@H]1O  pronephric angle neck segment    1.01
2  CC(=O)[C@H]1CC[C@H]2[C@@H]3CCC4=CC(=O)CC[C@]4(C)[C@H]3CC[C@]12C  pronephric angle neck segment     1.2
3  CC(C)COCC(CN(Cc1ccccc1)c1ccccc1)N1CCCC1 (configuration not stated) [Bepridil hydrochloride]  pronephric angle neck segment   0.993
4  COc1ccc(-c2ccc3cc(C(=O)O)ccc3c2)cc1C12CC3CC(CC(C3)C1)C2  pronephric angle neck segment     1.1

q: Consider the molecule CC(=O)OCC(=O)[C@@]1(O)CC[C@H]2[C@@H]3CCC4=CC(=O)CC[C@]4(C)[C@@]3(F)[C@@H](O)C[C@@]21C [Fludrocortisone acetate] and give its measured pronephric angle neck segment.
a: 1.18

q: Moving on to CN(CCOc1ccc(CC2SC(=O)NC2=O)cc1)c1ccccn1 (configuration not stated) [Rosiglitazone Hydrochloride]
a: 0.973

====

System: Danio rerio Tg(wt1b:EGFP) embryo, pronephros
assay: glomerular separation, fold change vs DMSO control; higher = glomeruli further apart (abnormal)
experimental conditions: 25 µM; exposure: 24-48 hpf
Where a name gives a salt, the structure may show the parent alone.
quantity kind: glomerular separation

// worked examples, glomerular separation included
molecule	target or system	result
CCOC(=O)[C@@](C)(N)Cc1ccc(O)c(O)c1 [Methyldopate hydrochloride]	Danio rerio Tg(wt1b:EGFP) embryo, pronephros	1.28
OCCOCCN1CCN(C(c2ccccc2)c2ccc(Cl)cc2)CC1 (centres undefined) [Hydroxyzine dihydrochloride]	Danio rerio Tg(wt1b:EGFP) embryo, pronephros	0.754
C[C@H]1O[C@H](O[C@H]2[C@H](O)[C@@H](O)[C@@H](O[C@H]3[C@H](O)[C@@H](O)C(O)O[C@@H]3CO)O[C@@H]2CO)[C@H](O)[C@@H](O)[C@@H]1N[C@H]1C=C(CO)[C@@H](O)[C@H](O)[C@H]1O (some centres undefined)	Danio rerio Tg(wt1b:EGFP) embryo, pronephros	0.951

q: Consider the molecule CC(=O)O[C@]1(C(C)=O)CC[C@H]2[C@@H]3C=C(C)C4=CC(=O)CC[C@]4(C)[C@H]3CC[C@@]21C [Megestrol acetate] and give its measured glomerular separation.
a: 1.27

====

Tested on: Danio rerio Tg(wt1b:EGFP) embryo, pronephros
assay: fraction of imaged embryos annotated as normal kidney; higher = less nephrotoxic; extreme values may be limits of the assay
experimental conditions: 25 µM; exposure: 24-48 hpf
Where a name gives a salt, the structure may show the parent alone.
Use class 1 when the recorded fraction of imaged embryos annotated as normal kidney is no lower than 0.8; use class 0 when it is lower.

Below, 4 compounds whose answers are already recorded.
                                   compound                          target_or_system  group_label
0  O=C(C1CCCCC1)N1CC(=O)N2CCc3ccccc3C2C1 (stereo not given)  Danio rerio Tg(wt1b:EGFP) embryo, pronephros      class 0
1  CCOC(=O)C1=C(COCCN)NC(C)=C(C(=O)OC)C1c1ccccc1Cl (stereo not given)  Danio rerio Tg(wt1b:EGFP) embryo, pronephros      class 1
2    NC(N)=Nc1nc(CSCC/C(N)=N/S(N)(=O)=O)cs1  Danio rerio Tg(wt1b:EGFP) embryo, pronephros      class 1
3  NS(=O)(=O)c1cc2c(cc1Cl)N=C(CSCc1ccccc1)NS2(=O)=O [Benzthiazide]  Danio rerio Tg(wt1b:EGFP) embryo, pronephros      class 1

// next entry
q: In plain terms: is recorded fraction of imaged embryos annotated as normal kidney at least 0.8 for CCCN(CCC)CCc1cccc2c1CC(=O)N2 [Ropinirole hydrochloride] ?
a: class 0

====

Test system: Danio rerio Tg(wt1b:EGFP) embryo, pronephros
assay: fraction of imaged embryos annotated as normal kidney; higher = less nephrotoxic; extreme values may be limits of the assay
experimental conditions: 25 µM; exposure: 24-48 hpf
Where a name gives a salt, the structure may show the parent alone.
Property: fraction of imaged embryos annotated as normal kidney; scope: individual compounds

// worked examples, fraction of imaged embryos annotated as normal kidney included
>>> print(df.to_string())
                                   compound  result
0                      Nc1ccc(O)c(C(=O)O)c1   0.917
1  C[C@H](N[C@@H](CCc1ccccc1)C(=O)O)C(=O)N1CCC[C@H]1C(=O)O [Enalaprilat dihydrate]       1
2  COc1ccccc1Oc1c(NS(=O)(=O)c2ccc(C(C)(C)C)cc2)nc(-c2ncccn2)nc1OCCO   0.833

q: Consider the compound CN(C)CCCSC(=N)N [Dimaprit dihydrochloride] and give its measured fraction of imaged embryos annotated as normal kidney.
a: 0.75

q: Moving on to CC(C)NCC(O)c1ccc(O)c(O)c1 (single isomer, unassigned; (-)) [(-)-Isoproterenol hydrochloride]
a: 0.833

Attribution: the supplement of paper PMC7366291
